These entries and their values trace back to patent US20250115677A1.

- assay_target: T1, human CEA on cells (MKN45, LOVO, NCI-H2122, LS174T, CT26/CEA) (human, UniProt P06731 35-685)
- T1 sequence: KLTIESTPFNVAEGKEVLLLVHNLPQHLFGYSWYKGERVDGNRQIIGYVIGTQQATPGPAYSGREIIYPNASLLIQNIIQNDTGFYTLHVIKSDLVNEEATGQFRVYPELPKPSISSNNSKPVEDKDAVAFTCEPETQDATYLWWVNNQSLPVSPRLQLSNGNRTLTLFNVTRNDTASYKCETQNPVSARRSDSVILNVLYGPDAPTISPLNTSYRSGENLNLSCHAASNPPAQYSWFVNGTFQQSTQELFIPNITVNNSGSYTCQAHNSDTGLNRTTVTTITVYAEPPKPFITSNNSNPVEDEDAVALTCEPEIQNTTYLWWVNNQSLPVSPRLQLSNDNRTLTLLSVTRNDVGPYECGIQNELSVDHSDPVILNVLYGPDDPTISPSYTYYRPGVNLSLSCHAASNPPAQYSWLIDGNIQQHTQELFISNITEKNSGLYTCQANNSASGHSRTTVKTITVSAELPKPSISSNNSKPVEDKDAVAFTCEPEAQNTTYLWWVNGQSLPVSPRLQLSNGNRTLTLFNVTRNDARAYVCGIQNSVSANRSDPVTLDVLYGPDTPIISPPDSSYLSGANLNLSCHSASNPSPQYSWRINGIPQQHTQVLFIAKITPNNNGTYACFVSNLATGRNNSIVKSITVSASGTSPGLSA
- test_method_notes: cell-based or functional assay
readout: EC50, cell killing of NCI-H2122 cells (nM)
Numbers only, in nM.

binder	EC50, cell killing of NCI-H2122 cells, nM
BGA0084 (antibody, human IgG1, kappa, V domains shown, linker-payload conjugated after reduction of the antibody, DAR 8 profile (structure only as a drawing in Table 18)) VH: QVQLVQSGAEVKKPGASVKVSCKASGYIFTSYYLHWVRQAPGQGLEWIGYINPQTGKTSYAQKFQGRVTMTRDTSTSTVYMELSSLRSEDTAVYYCAREYGNYNYPLDYWGQGTLVTVSS VL: DIQMTQSPSSLSASVGDRVTITCRASENQYGYLAWYQQKPGKVPKLLIYNYKNLVEGVPSRFSGSGSGTDFTLTISSLQPEDVATYYCQHHLGTPYTFGQGTKVEIKR	0.19
BGA2588 (BGA5384 conjugated with DXD) (antibody, human IgG1, kappa, V domains shown, DXD linker-payload conjugated after reduction of the antibody, DAR 8 profile (structure only as a drawing in Table 18)) VH: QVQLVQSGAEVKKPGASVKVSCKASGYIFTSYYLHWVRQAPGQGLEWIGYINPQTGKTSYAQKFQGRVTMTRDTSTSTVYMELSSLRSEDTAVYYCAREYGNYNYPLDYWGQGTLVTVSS VL: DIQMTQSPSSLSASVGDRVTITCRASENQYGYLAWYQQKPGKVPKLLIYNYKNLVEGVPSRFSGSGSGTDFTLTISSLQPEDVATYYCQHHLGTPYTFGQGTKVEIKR	0.22

Here are 2 binders. What values of EC50, cell killing of NCI-H2122 cells were reported for them?
1. BGA2490 (antibody, human IgG1, kappa, V domains shown, linker-payload conjugated after reduction of the antibody, DAR 8 profile (structure only as a drawing in Table 18)) VH: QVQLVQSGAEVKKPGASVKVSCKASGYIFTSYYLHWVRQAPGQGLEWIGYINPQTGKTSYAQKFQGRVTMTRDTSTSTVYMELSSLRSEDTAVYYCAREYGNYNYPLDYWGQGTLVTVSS VL: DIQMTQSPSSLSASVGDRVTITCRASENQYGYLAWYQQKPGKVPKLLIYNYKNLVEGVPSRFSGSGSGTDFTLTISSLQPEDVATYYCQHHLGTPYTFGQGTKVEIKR
2. BGA8357 (antibody, human IgG1, kappa, V domains shown, linker-payload conjugated after reduction of the antibody, DAR 8 profile (structure only as a drawing in Table 18)) VH: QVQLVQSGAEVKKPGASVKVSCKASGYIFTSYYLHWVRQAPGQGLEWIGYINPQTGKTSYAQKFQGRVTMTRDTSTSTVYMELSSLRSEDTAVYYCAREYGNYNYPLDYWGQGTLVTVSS VL: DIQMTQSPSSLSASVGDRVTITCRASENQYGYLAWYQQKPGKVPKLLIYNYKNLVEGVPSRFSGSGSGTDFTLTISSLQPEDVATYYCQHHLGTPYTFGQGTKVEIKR

1: 0.19; 2: 0.14
